Target: T1, HLA-DR3 (DRB1*0301) (human)
T1 construct: purified HLA class II molecule
Assay: competition binding assay, purified HLA, 125I-labelled probe peptide, gel filtration
Record form. Attribute: relative binding ratio. Fill in for each entry.

Challenge: Any idea what relative binding ratio was measured for KNGVVKDVFAFGGAV (also called Her2/neu.1177) [HER2/neu peptide KNGVVKDVFAFGGAV (position 1177)] ?
Response given: -0.0025 ratio to standard peptide

Challenge: Any idea what relative binding ratio was measured for NKEILDEAYVMAGVG (also called Her2/neu.764) [HER2/neu peptide NKEILDEAYVMAGVG (position 764)] ?
Response given: 0.0047 ratio to standard peptide

Challenge: Any idea what relative binding ratio was measured for FVVIQNEDLGPASPL (also called Her2/neu.986) [HER2/neu peptide FVVIQNEDLGPASPL (position 986)] ?
Response given: -0.0025 ratio to standard peptide

This collection of values is drawn from patent US20040018971A1.
